Target: Raf-1 RBD (GST-RBD) (UniProt P04049 P04049:51-131)
Assay: filter; group 1; percent bound only in figure
Conditions: tags: GST fusion, expressed in E. coli; label: 32P
Measurement kind: binding result

Solved entries (count: 5):
Binder	binding result
clone 21.03 (ssRNA) RNA: GGGAGAUCAGAAUAAACGCUCAACUGAUCAAUGGCGUACAAUGGAUUCGUUCUCAUAACCAAAACCCUUACCCCUUGGACUGCUUCGACAUGAGGCCCCUGCAGGGCG	binds
clone 21.05 (ssRNA) RNA: GGGAGAUCAGAAUAAACGCUCAACUGAUCAAUGGCGUACAAUGGAUUCGUUCUCAUAACCAAAACCCUUACUCCUUGGACUGCUUCGACAUGAGGCCCCUGCAGGGCG	binds
clone 21.02 (ssRNA) RNA: GGGAGAUCAGAAUAAACGCUCAACUGAUCAAUGGCGUACAAUGGAUUCGUUCUCAUAACCAAAACCCUUACCCCUGGACUGAUUCGACAUGAGGCCCCUGCAGGGCG	binds
clone 21.06 (ssRNA) RNA: GGGAGAUCAGAAUAAACGCUCAACUGAUCAAUGGCGUACAAUGGAUUCGUUCUCAUAACCAAAACCCUUACCCCUUGGACUGUUUCGACAUGAGGCCCCUGCAGGGCG	binds
clone 21.08 (ssRNA) RNA: GGGAGAUCAGAAUAAACGCUCAAUUGAAGAUCGUACAAUGGAUUCGAUCAUAACCCGAAGUUUUUAAACACUCUUUACCUGUAUUCGACAUGAGGCCCCUGCAGGGCG	binds

Assign binding result to the following record: clone 21.04 (ssRNA) RNA: GGGAGAUCAGAAUAAACGCUCAACUGAUCAAUGGCGUACAAUGGAUUCGCUCUCAUAACCAAAACCCUUACCCCUUGGACUGCUUCGACAUGAGGCCCCUGCAGGGCG binds
